Provenance of the data: PubChem BioAssay (NCI)

ASSAY_PROTOCOL: NCI Yeast Anticancer Drug Screen. Data for the bub3 strain (AID 167)
CONDITION_NOTES: S. cerevisiae bub3 mutant strain, at 50.0 µM, hits give high values
Compounds without any hit were thinned out: in the full panel of roughly 79,000, 15% have a hit.
ENDPOINT_NAME: growth inhibition (%)

>  <COMPOUND>
CC(=O)OCCOCNC(=S)N/N=C/c1ccccn1

>  <RECORDED_NUMBER>
12.6

$$$$
>  <COMPOUND>
COCN(Cc1ccccc1)C[Si](C)(C)C

>  <RECORDED_NUMBER>
14.2

$$$$
>  <COMPOUND>
COC(C(=O)C(O)C(C)O)C1CC2C=C3C=C(OC4CC(OC5CC(O)C(OC)C(C)O5)C(OC(C)=O)C(C)O4)C(C)C(=O)C3=C(O)C2=C(O)C1OC1CC(OC2CC(OC3CC(C)(O)C(OC(=O)C(C)C)C(C)O3)C(O)C(C)O2)C(O)C(C)O1 (configuration not stated)

>  <RECORDED_NUMBER>
26.4

$$$$
>  <COMPOUND>
CCOc1ccc2nc(NC(=O)C(=O)C(C(=O)c3ccccc3-c3ccccc3)C3OC(=O)c4ccccc43)sc2c1 (configuration not stated)

>  <RECORDED_NUMBER>
-32.1

$$$$
>  <COMPOUND>
COc1cc([N+](=O)[O-])c2ncccc2c1OC

>  <RECORDED_NUMBER>
0.45

$$$$
>  <COMPOUND>
CN(C)Cc1cc(C(C)(C)C)cc(CNC2CCCCC2)c1O

>  <RECORDED_NUMBER>
-24.4

$$$$
>  <COMPOUND>
CS(=O)(=O)OC[C@H](NC(=O)c1ccccc1)[C@H](COS(C)(=O)=O)NC(=O)c1ccccc1

>  <RECORDED_NUMBER>
-9.85

$$$$
>  <COMPOUND>
CC(=O)OC1C(=O)OCC23CCC(C)=CC2OC2CC(OC(=O)/C=C/C=C/C(=O)OCCC1C)C3(C)C21CO1 (configuration not stated)

>  <RECORDED_NUMBER>
-22.6

$$$$
>  <COMPOUND>
CC1(C)CC(C)(OC(=O)c2ccccc2)N=N1 (configuration not stated)

>  <RECORDED_NUMBER>
4.35

$$$$
>  <COMPOUND>
O=C(O)c1ccccc1NCn1c(=S)sc2ccccc21

>  <RECORDED_NUMBER>
43.8

$$$$
>  <COMPOUND>
CN1CCN(CCNNCCN2CCCC(O)C2)CC1 (configuration not stated)

>  <RECORDED_NUMBER>
-7.25

$$$$
>  <COMPOUND>
CCN(CC)C(=O)Sc1ccc(SC(=O)N(CC)CC)cc1

>  <RECORDED_NUMBER>
-3.3

$$$$
>  <COMPOUND>
CCC(C#N)C1=CCCCCC1 (configuration not stated)

>  <RECORDED_NUMBER>
4.6

$$$$
>  <COMPOUND>
O=C(O)c1cccc2ccc3cccc(C(=O)O)c3c12

>  <RECORDED_NUMBER>
2

$$$$
>  <COMPOUND>
O1[SiH]2[SiH]3O[SiH]3[SiH]3O[SiH]3[SiH]12 (configuration not stated)

>  <RECORDED_NUMBER>
-4.35

$$$$
>  <COMPOUND>
c1ccc2c(c1)oc1cc3c(cc12)n1nnnc1c1cccn31

>  <RECORDED_NUMBER>
4.6

$$$$
>  <COMPOUND>
CNC(=O)OCc1nc(SC(C)C)n(C)c1COC(=O)NC

>  <RECORDED_NUMBER>
-18.7

$$$$
